System: SW 1573
Test: relative viability (nuclei count vs DMSO), 5 days (fraction); higher = more cells survive
Settings: first compound 0.05 µM
MEASUREMENT_LABEL: relative viability
Give bare numbers.

| MOLECULE | relative viability |
| --- | --- |
| CC1(C)CCC(c2ccc(Cl)cc2)=C(CN2CCN(c3ccc(C(=O)NS(=O)(=O)c4ccc(N[C@H](CCN5CCOCC5)CSc5ccccc5)c(S(=O)(=O)C(F)(F)F)c4)cc3)CC2)C1 [Navitoclax] + O=C(CCCCCCC(=O)Nc1ccccc1)NO [Vorinostat] (partner 1 µM) | 0.683 |
| CC1(C)CCC(c2ccc(Cl)cc2)=C(CN2CCN(c3ccc(C(=O)NS(=O)(=O)c4ccc(N[C@H](CCN5CCOCC5)CSc5ccccc5)c(S(=O)(=O)C(F)(F)F)c4)cc3)CC2)C1 [Navitoclax] + Nc1nc2[nH]cc(CCc3ccc(C(=O)N[C@@H](CCC(=O)O)C(=O)O)cc3)c2c(=O)[nH]1 [Pemetrexed] (partner 0.2 µM) | 0.787 |
| CC1(C)CCC(c2ccc(Cl)cc2)=C(CN2CCN(c3ccc(C(=O)NS(=O)(=O)c4ccc(N[C@H](CCN5CCOCC5)CSc5ccccc5)c(S(=O)(=O)C(F)(F)F)c4)cc3)CC2)C1 [Navitoclax] + Cc1cc(Nc2cc(N3CCN(C)CC3)nc(Sc3ccc(NC(=O)C4CC4)cc3)n2)n[nH]1 [Tozasertib] (partner 0.1 µM) | 0.173 |
| CC1(C)CCC(c2ccc(Cl)cc2)=C(CN2CCN(c3ccc(C(=O)NS(=O)(=O)c4ccc(N[C@H](CCN5CCOCC5)CSc5ccccc5)c(S(=O)(=O)C(F)(F)F)c4)cc3)CC2)C1 [Navitoclax] + O=C(c1cc(Cc2n[nH]c(=O)c3ccccc23)ccc1F)N1CCN(C(=O)C2CC2)CC1 [Olaparib] (partner 8 µM) | 0.471 |

// for each molecule below, give its relative viability
1. CC1(C)CCC(c2ccc(Cl)cc2)=C(CN2CCN(c3ccc(C(=O)NS(=O)(=O)c4ccc(N[C@H](CCN5CCOCC5)CSc5ccccc5)c(S(=O)(=O)C(F)(F)F)c4)cc3)CC2)C1 [Navitoclax] + Cc1nc(Nc2ncc(C(=O)Nc3c(C)cccc3Cl)s2)cc(N2CCN(CCO)CC2)n1 [Dasatinib] (partner 0.075 µM)
2. CC1(C)CCC(c2ccc(Cl)cc2)=C(CN2CCN(c3ccc(C(=O)NS(=O)(=O)c4ccc(N[C@H](CCN5CCOCC5)CSc5ccccc5)c(S(=O)(=O)C(F)(F)F)c4)cc3)CC2)C1 [Navitoclax] + C[C@]1(O)C[C@@H](c2nc(-c3ccc4ccc(-c5ccccc5)nc4c3)c3c(N)nccn32)C1 [Linsitinib] (partner 1 µM)

[0.637, 0.747]
